Tested on: 388556-164-R-J1-PDC complex spheroid viability
Protocol notes: Anticancer human tumor 388556-164-R-J1-PDC patient-derived colon adenocarcinoma cell line growth inhibition [RAS]
Measurement context: second compound 0.316 µM; first compound 0.1 µM; hits give low values
In this section we review reported viability, T/C values for a set of compounds.
Test readout: viability, T/C (%)

Compound	Test readout	Units symbol	Endpoint result
CC(Nc1ccc2c(c1)OCCn1cc(N3C(=O)OCC3C(F)F)nc1-2)C(N)=O (stereo not drawn) + C=CC(=O)N1CCN(c2nc(OCC3CCCN3C)nc3c(F)c(-c4nc(N)cc(C)c4C(F)(F)F)c(Cl)cc23)C(C)C1	viability, T/C	%	114
O=C(c1ccc(F)c(F)c1Nc1ccc(I)cc1F)N1CC(O)([C@@H]2CCCCN2)C1 + C=CC(=O)N1CCN(c2nc(OCC3CCCN3C)nc3c(F)c(-c4nc(N)cc(C)c4C(F)(F)F)c(Cl)cc23)C(C)C1	viability, T/C	%	58.6
C[C@@H](NC(=O)c1ncnc(N)c1Cl)c1ncc(C(=O)Nc2cc(C(F)(F)F)c(Cl)cn2)s1 + C#Cc1c(F)ccc2cc(O)cc(-c3ncc4c(N5CC6CCC(C5)N6)nc(OCC56CCCN5CC(F)C6)nc4c3F)c12	viability, T/C	%	115
CC(=O)OC12COC1CC(O)C1(C)C(=O)C(O)C3=C(C)C(OC(=O)C(O)C(NC(=O)OC(C)(C)C)c4ccccc4)CC(O)(C(OC(=O)c4ccccc4)C21)C3(C)C (stereo not drawn) + C#Cc1c(F)ccc2cc(O)cc(-c3ncc4c(N5CC6CCC(C5)N6)nc(OCC56CCCN5CC(F)C6)nc4c3F)c12	viability, T/C	%	73.7
CC1(O)CCCC1n1c(=O)c(C(F)F)cc2cnc(NC3CCN(S(C)(=O)=O)CC3)nc21 (stereo not drawn) + C=CC(=O)N1CCN(c2nc(OCC3CCCN3C)nc3c(F)c(-c4nc(N)cc(C)c4C(F)(F)F)c(Cl)cc23)C(C)C1	viability, T/C	%	91.7
C=CC(=O)Nc1cc(Nc2nccc(-c3cn(C)c4ccccc34)n2)c(OC)cc1N(C)CCN(C)C + C#Cc1c(F)ccc2cc(O)cc(-c3ncc4c(N5CC6CCC(C5)N6)nc(OCC56CCCN5CC(F)C6)nc4c3F)c12	viability, T/C	%	92
CCN1CCN(Cc2ccc(Nc3ncc(F)c(-c4cc(F)c5nc(C)n(C(C)C)c5c4)n3)nc2)CC1 + C#Cc1c(F)ccc2cc(O)cc(-c3ncc4c(N5CC6CCC(C5)N6)nc(OCC56CCCN5CC(F)C6)nc4c3F)c12	viability, T/C	%	88
CC1(O)CCCC1n1c(=O)c(C(F)F)cc2cnc(NC3CCN(S(C)(=O)=O)CC3)nc21 (stereo not drawn) + C#Cc1c(F)ccc2cc(O)cc(-c3ncc4c(N5CC6CCC(C5)N6)nc(OCC56CCCN5CC(F)C6)nc4c3F)c12	viability, T/C	%	108

====

System: 388556-164-R-J1-PDC complex spheroid viability
Protocol notes: Anticancer human tumor 388556-164-R-J1-PDC cell line growth inhibition [RAS];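 also: spheroids exposed to compound for 7 days before readout; 100% = DMSO vehicle control luminescence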
Measurement context: second compound 0.00949 µM; first compound 1 µM; hits give low values
Under this convention, MET denotes viability, T/C strictly below 30% and NOT MET denotes viability, T/C at or above 30%.

Compound	Assigned label
Cc1nc(N2CCC3(CC2)COC(C)C3N)c(CO)nc1Sc1ccnc(N)c1Cl (stereo not drawn) + CCn1c(-c2cc(N3CCN(C)CC3)cnc2C(C)OC)c2c3cc(ccc31)-c1csc(n1)CC(NC(=O)C1CC1C)C(=O)N1CCCC(N1)C(=O)OCC(C)(C)C2	NOT MET
CCN1CCN(Cc2ccc(Nc3ncc(F)c(-c4cc(F)c5nc(C)n(C(C)C)c5c4)n3)nc2)CC1 + CCn1c(-c2cc(N3CCN(C)CC3)cnc2C(C)OC)c2c3cc(ccc31)-c1csc(n1)CC(NC(=O)C1CC1C)C(=O)N1CCCC(N1)C(=O)OCC(C)(C)C2	NOT MET
CCC(CC)c1cc(NC2CCC(N)C2)n2nccc2n1 (stereo not drawn) + CCn1c(-c2cccnc2C(C)OC)c2c3cc(ccc31)N1CCOC(CC(NC(=O)C(C(C)C)N(C)C(=O)C3(F)CCN(C(=O)C#CC(C)(C)N(C)C)CC3)C(=O)N3CCCC(N3)C(=O)OCC(C)(C)C2)C1	NOT MET
C=CC(=O)Nc1cc(Nc2nccc(-c3cn(C)c4ccccc34)n2)c(OC)cc1N(C)CCN(C)C + CCn1c(-c2cc(N3CCN(C)CC3)cnc2C(C)OC)c2c3cc(ccc31)-c1csc(n1)CC(NC(=O)C1CC1C)C(=O)N1CCCC(N1)C(=O)OCC(C)(C)C2	MET
O=C(c1ccc(F)c(F)c1Nc1ccc(I)cc1F)N1CC(O)([C@@H]2CCCCN2)C1 + CCn1c(-c2cc(N3CCN(C)CC3)cnc2C(C)OC)c2c3cc(ccc31)-c1csc(n1)CC(NC(=O)C1CC1C)C(=O)N1CCCC(N1)C(=O)OCC(C)(C)C2	MET
C[C@@H](NC(=O)c1ncnc(N)c1Cl)c1ncc(C(=O)Nc2cc(C(F)(F)F)c(Cl)cn2)s1 + CCn1c(-c2cc(N3CCN(C)CC3)cnc2C(C)OC)c2c3cc(ccc31)-c1csc(n1)CC(NC(=O)C1CC1C)C(=O)N1CCCC(N1)C(=O)OCC(C)(C)C2	NOT MET
NC1c2ccccc2OC12CCN(c1cnc3c(N4CCCc5ncccc54)n[nH]c3n1)CC2 (stereo not drawn) + CCn1c(-c2cc(N3CCN(C)CC3)cnc2C(C)OC)c2c3cc(ccc31)-c1csc(n1)CC(NC(=O)C1CC1C)C(=O)N1CCCC(N1)C(=O)OCC(C)(C)C2	MET
CCC(CC)c1cc(NC2CCC(N)C2)n2nccc2n1 (stereo not drawn) + CCn1c(-c2cc(N3CCN(C)CC3)cnc2C(C)OC)c2c3cc(ccc31)-c1csc(n1)CC(NC(=O)C1CC1C)C(=O)N1CCCC(N1)C(=O)OCC(C)(C)C2	NOT MET

====

Test system: 388556-164-R-J1-PDC complex spheroid viability
Protocol notes: Anticancer human tumor 388556-164-R-J1-PDC cell line growth inhibition [RAS];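 also: spheroids exposed to compound for 7 days before readout; 100% = DMSO vehicle control luminescence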
Measurement context: second compound 0.0949 µM; first compound 10 µM; hits give low values

Compound	viability, T/C [%]
CC(=O)OC12COC1CC(O)C1(C)C(=O)C(O)C3=C(C)C(OC(=O)C(O)C(NC(=O)OC(C)(C)C)c4ccccc4)CC(O)(C(OC(=O)c4ccccc4)C21)C3(C)C (configuration not stated) + CCn1c(-c2cc(N3CCN(C)CC3)cnc2C(C)OC)c2c3cc(ccc31)-c1csc(n1)CC(NC(=O)C1CC1C)C(=O)N1CCCC(N1)C(=O)OCC(C)(C)C2	25.4
CC(C)NCC(C(=O)N1CCN(c2ncnc3c2C(C)CC3O)CC1)c1ccc(Cl)cc1 (configuration not stated) + CCn1c(-c2cc(N3CCN(C)CC3)cnc2C(C)OC)c2c3cc(ccc31)-c1csc(n1)CC(NC(=O)C1CC1C)C(=O)N1CCCC(N1)C(=O)OCC(C)(C)C2	33

====

Tested on: 388556-164-R-J1-PDC complex spheroid viability
Protocol notes: Anticancer human tumor 388556-164-R-J1-PDC cell line growth inhibition [RAS];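 also: spheroids exposed to compound for 7 days before readout; 100% = DMSO vehicle control luminescence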
Measurement context: second compound 1 µM; first compound 0.00949 µM; hits give low values
In this section we review reported viability, T/C values for a set of molecules.
Test readout: viability, T/C (%)

Molecule	Endpoint result
CCc1c2c(nc3ccc(O)cc13)-c1cc3c(c(=O)n1C2)COC(=O)[C@]3(O)CC + C=CC(=O)N1CCN(c2nc(OCC3CCCN3C)nc3c(F)c(-c4nc(N)cc(C)c4C(F)(F)F)c(Cl)cc23)C(C)C1	75.8
CCc1c2c(nc3ccc(O)cc13)-c1cc3c(c(=O)n1C2)COC(=O)[C@]3(O)CC + C#Cc1c(F)ccc2cc(O)cc(-c3ncc4c(N5CC6CCC(C5)N6)nc(OCC56CCCN5CC(F)C6)nc4c3F)c12	60.5
CC1(C)CCC(Nc2ncc(C(F)(F)F)c(-c3c[nH]c4c(P(C)(C)=O)c(C#N)ccc34)n2)CN1 (centres undefined) + C=CC(=O)N1CCN(c2nc(OCC3CCCN3C)nc3c(F)c(-c4nc(N)cc(C)c4C(F)(F)F)c(Cl)cc23)C(C)C1	105
CC1(C)CCC(Nc2ncc(C(F)(F)F)c(-c3c[nH]c4c(P(C)(C)=O)c(C#N)ccc34)n2)CN1 (centres undefined) + C#Cc1c(F)ccc2cc(O)cc(-c3ncc4c(N5CC6CCC(C5)N6)nc(OCC56CCCN5CC(F)C6)nc4c3F)c12	80.7

====

Tested on: 388556-164-R-J1-PDC complex spheroid viability
Protocol notes: Anticancer human tumor 388556-164-R-J1-PDC cell line growth inhibition [RAS];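 also: spheroids exposed to compound for 7 days before readout; 100% = DMSO vehicle control luminescence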
Measurement context: second compound 3.16 µM; first compound 0.1 µM; hits give low values
Under this convention, class 1 denotes viability, T/C strictly below 60% and class 0 denotes viability, T/C at or above 60%.

Molecule	Assigned label
C=CC(=O)N1CCN(c2nc(OCC3CCCN3C)nc3c(F)c(-c4nc(N)cc(C)c4C(F)(F)F)c(Cl)cc23)C(C)C1 (centres undefined) + C#Cc1c(F)ccc2cc(O)cc(-c3ncc4c(N5CC6CCC(C5)N6)nc(OCC56CCCN5CC(F)C6)nc4c3F)c12	class 0
NC1c2ccccc2OC12CCN(c1cnc3c(N4CCCc5ncccc54)n[nH]c3n1)CC2 (centres undefined) + C#Cc1c(F)ccc2cc(O)cc(-c3ncc4c(N5CC6CCC(C5)N6)nc(OCC56CCCN5CC(F)C6)nc4c3F)c12	class 1
C[C@@H](NC(=O)c1ncnc(N)c1Cl)c1ncc(C(=O)Nc2cc(C(F)(F)F)c(Cl)cn2)s1 + C#Cc1c(F)ccc2cc(O)cc(-c3ncc4c(N5CC6CCC(C5)N6)nc(OCC56CCCN5CC(F)C6)nc4c3F)c12	class 0
C=CC(=O)Nc1cc(Nc2nccc(-c3cn(C)c4ccccc34)n2)c(OC)cc1N(C)CCN(C)C + C#Cc1c(F)ccc2cc(O)cc(-c3ncc4c(N5CC6CCC(C5)N6)nc(OCC56CCCN5CC(F)C6)nc4c3F)c12	class 0
Cc1nc(N2CCC3(CC2)COC(C)C3N)c(CO)nc1Sc1ccnc(N)c1Cl (centres undefined) + C#Cc1c(F)ccc2cc(O)cc(-c3ncc4c(N5CC6CCC(C5)N6)nc(OCC56CCCN5CC(F)C6)nc4c3F)c12	class 1
CC1(O)CCCC1n1c(=O)c(C(F)F)cc2cnc(NC3CCN(S(C)(=O)=O)CC3)nc21 (centres undefined) + C#Cc1c(F)ccc2cc(O)cc(-c3ncc4c(N5CC6CCC(C5)N6)nc(OCC56CCCN5CC(F)C6)nc4c3F)c12	class 0
CCN1CCN(Cc2ccc(Nc3ncc(F)c(-c4cc(F)c5nc(C)n(C(C)C)c5c4)n3)nc2)CC1 + C#Cc1c(F)ccc2cc(O)cc(-c3ncc4c(N5CC6CCC(C5)N6)nc(OCC56CCCN5CC(F)C6)nc4c3F)c12	class 0
CC(Nc1ccc2c(c1)OCCn1cc(N3C(=O)OCC3C(F)F)nc1-2)C(N)=O (centres undefined) + C#Cc1c(F)ccc2cc(O)cc(-c3ncc4c(N5CC6CCC(C5)N6)nc(OCC56CCCN5CC(F)C6)nc4c3F)c12	class 0
